Listed below: minimal effective concentration values for each entry.
Test system: Peripheral blood mononuclear cells (PBMC)
Experiment: Cytokine Induction in Human Cells (in vitro human blood cell system, IFN and TNF secreted into culture media)
Type: cell-based
Conditions: Homo sapiens, PBMC, lowest concentration found to induce tumor necrosis factor (α), 18 to 24 hours, ELISA or IGEN assay, tested 30-0.014 μM, read-out: Lowest Effective Concentration (μM) Tumor Necrosis Factor
Structures can show the parent of a compound that is named as a salt.
Field format: number, assumed µM, no unit text.

Consider the following illustrative entries.
> print(dat)
                                   compound  readout.value
1  Cc1cccc(C)c1C#CCOCCn1cnc2c(N)nc3ccccc3c21 [Example 8]             10
2  Nc1ccccc1CCCOCCn1cnc2c(N)nc3ccccc3c21 [Example 18, trifluoroacetate]           1.11
3  Cc1nc2c(N)nc3ccccc3c2n1CCOCc1ccccc1 [Example 127]           0.12
4  CC(Cn1cnc2c(N)nc3ccccc3c21)OCc1ccc(C(C)(C)C)cc1 (stereo not drawn) [Example 67]             30
5  CCC(COCc1cccc(Cl)c1)n1cnc2c(N)nc3ccccc3c21 (stereo not drawn) [Example 17]           0.37
6  CC(C)c1nc2c(N)nc3ccccc3c2n1CCOc1ccccc1 [Example 131]             10

Output reported minimal effective concentration of the compound Nc1nc2ccccc2c2c1ncn2CCOCCCc1ccc(C(=O)O)cc1 [Example 14, trifluoroacetate] on Peripheral blood mononuclear cells (PBMC).
10

Please respond with reported minimal effective concentration (system Peripheral blood mononuclear cells (PBMC)) for CCOCc1nc2c(N)nc3ccccc3c2n1CCOCC#Cc1ccccc1 [Example 122] .
0.12

For Peripheral blood mononuclear cells (PBMC), give the measured minimal effective concentration of the entry COCCc1nc2c(N)nc3ccccc3c2n1CCOCC#Cc1ccccc1 [Example 120]
0.01
